target: EED (Homo sapiens); assay: EED TR-FRET Binding Assay (modified LanthaScreen competition assay)
reported.endpoint: IC50 (nM)

Solved cases (3 shown):
# molecule, IC50 / nM
rows = [
    ("CN(C)[C@@H]1CN(C2CCc3cccc(F)c32)C[C@H]1c1ccc(N2CCN(c3ccccn3)CC2)cc1 (mixture of isomers) [Example 75]", 0.906),
    ("CN(C)[C@H]1CN([C@H]2CCc3cccc(F)c32)C[C@@H]1c1cn(C)c2cccnc12 (mixture of isomers) [Example 138]", 119),
    ("CN(C)[C@H]1CN(C2CCc3cccc(F)c32)C[C@@H]1c1ccc(C(=O)N2CC[C@H](O)C2)cc1 (mixture of isomers) [Example 40]", 4.62),
]

[P] CN(C)[C@H]1CN(C2CCc3cccc(Cl)c32)C[C@@H]1c1ccc(C(=O)O)cc1 (mixture of isomers) [Example 28]
[Q] CN(C)[C@H]1CN(C2CCc3cccc(F)c32)C[C@@H]1c1cn(C)c2c(C(=O)N3CCN(c4cccnn4)CC3)cccc12 (mixture of isomers) [Example 137]
(Q) Higher IC50 between P and Q ? I would appreciate it if you answered with the label of your choice.
(A) P
(P: 489 nM, Q: 1.91 nM)

[A] CN(C)C(=O)c1ccc([C@H]2CN(C3CCc4cccc(F)c43)C[C@@H]2N(C)C)cc1 (mixture of isomers) [Example 26]
[B] CN(C)[C@H]1CN(C2CCc3cccc(F)c32)C[C@@H]1c1cn(C)c2c(C(=O)O)cccc12 (mixture of isomers) [Example 80]
(Q) Look at A and B . Which one has the lower recorded IC50 number? Your answer should be the label of the entry you select.
(A) A

====

molecular target: EED (Homo sapiens, UniProt O75530); experiment: EED TR-FRET Binding Assay (modified LanthaScreen competition assay)
Sequence (O75530 whole entry): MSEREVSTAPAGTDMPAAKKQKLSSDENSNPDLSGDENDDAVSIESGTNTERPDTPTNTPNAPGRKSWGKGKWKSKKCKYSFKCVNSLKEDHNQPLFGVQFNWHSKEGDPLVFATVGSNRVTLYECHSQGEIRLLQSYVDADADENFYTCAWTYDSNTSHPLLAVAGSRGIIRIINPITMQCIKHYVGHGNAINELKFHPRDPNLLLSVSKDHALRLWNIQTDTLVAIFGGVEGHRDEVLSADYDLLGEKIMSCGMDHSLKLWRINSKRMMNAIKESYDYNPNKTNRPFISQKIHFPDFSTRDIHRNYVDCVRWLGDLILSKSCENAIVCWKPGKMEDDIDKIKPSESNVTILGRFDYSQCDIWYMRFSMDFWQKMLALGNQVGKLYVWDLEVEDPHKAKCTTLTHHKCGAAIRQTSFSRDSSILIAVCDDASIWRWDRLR
pIC50: −log10 of the molar value.
reported.endpoint: pIC50

Known results for compounds:
# compound, recorded.value
rows = [
    ("CC(=O)N1CCN(C(=O)c2cccc3c([C@H]4CN(C5CCc6cccc(F)c65)C[C@@H]4N(C)C)cn(C)c23)CC1 (mixture of isomers) [Example 128]", 8.99),
    ("CN(C)[C@H]1CN([C@H]2CCc3ccccc32)C[C@@H]1c1ccc(S(C)(=O)=O)cc1 [Example 9]", 8.00),
]

[I] COC(=O)c1cccc2c([C@@H]3CN(C4CCc5cccc(F)c54)C[C@H]3N(C)C)cn(C)c12 (stereo partly shown) [Example 86]
[II] CN(C)C(=O)N1CCN(c2ccc([C@H]3CN(C4CCc5cccc(F)c54)C[C@@H]3N(C)C)cc2)CC1 (mixture of isomers) [Example 63]
(Q) Two entries are listed, I and II . Which one carries the higher pIC50? Give the chosen item's label as your response.
(A) II
(II: 8.83, I: 7.83)

====

biological target: EED (Homo sapiens); assay: EED TR-FRET Binding Assay (modified LanthaScreen competition assay)
reported.endpoint: IC50 (nM)

Guide cases for IC50, answers given:
# molecule, reported.endpoint, value.unit, recorded.value
data = [
    ("Cc1coc(-c2ccc([C@@H]3CN(C4CCc5cccc(F)c54)C[C@H]3N(C)C)cc2)n1 (mixture of isomers)", "IC50", "nM", 3.89),
    ("CN1CCN(c2cccc3c([C@H]4CN(C5CCc6cccc(F)c65)C[C@@H]4N(C)C)cn(C)c23)CC1=O (mixture of isomers)", "IC50", "nM", 0.739),
    ("CN(C)C1CN(C2CCc3cccc(F)c32)CC1c1cn(C)c2cc(C(=O)N3CCC(O)C3)ccc12 (racemic)", "IC50", "nM", 2.59),
    ("CN(C)[C@@H]1CN(C2CCc3cccc(F)c32)C[C@H]1c1ccc(N2CCNCC2)nc1 (mixture of isomers)", "IC50", "nM", 5.2),
    ("CC(=O)N1CCN(c2ccc([C@H]3CN(C4CCc5cccc(F)c54)C[C@@H]3N(C)C)cc2)CC1 (mixture of isomers) [Example 44]", "IC50", "nM", 0.652),
]

[1] CN(C)[C@H]1CN(C2CCc3cccc(F)c32)C[C@@H]1c1cn(C)c2c(C(=O)N3CC[C@H](O)C3)cccc12 (mixture of isomers)
[2] CN(C)[C@@H]1CN(C2CCc3cccc(F)c32)C[C@H]1c1ccc(N2CCN(C(=O)CS(N)(=O)=O)CC2)nc1 (mixture of isomers)
(Q) I'm curious whether 1 or 2 has the smaller IC50 number. Which is it? Write the label of whichever entry you select.
(A) 2
(2: 1.06 nM, 1: 3.35 nM)

[P] CN(C)[C@H]1CN(C2CCc3cccc(F)c32)C[C@@H]1C1CCN(c2ccccn2)CC1 (mixture of isomers)
[Q] CN(C)[C@@H]1CN(C2CCc3cccc(F)c32)C[C@H]1c1ccc(N2CCN(c3ccncn3)CC2)cc1 (mixture of isomers)
(Q) P or Q : whose IC50 is greater? Indicate which entry you chose by stating its label.
(A) P
(P: 2.04 nM, Q: 0.633 nM)

[P] CN(C)[C@@H]1CN(C2CCc3cccc(F)c32)C[C@H]1c1ccc(-c2ncco2)cc1 (mixture of isomers)
[Q] CN(CCO)C(=O)c1cccc2c([C@H]3CN(C4CCc5cccc(F)c54)C[C@@H]3N(C)C)cn(C)c12 (mixture of isomers)
[R] CN(C)C(=O)CN1CCN(c2ccc([C@@H]3CN(C4CCc5cccc(F)c54)C[C@H]3N(C)C)cn2)CC1 (mixture of isomers)
(Q) # rank by IC50, ascending (min first) Please list the labels in the order you were asked to rank them.
(A) Q, P, R

====

Measured IC50, listed per entry for reference.
test system: Pfeiffer cells; test: CTG cell viability assay (CellTiter-Glo); assay type: cell-based; details: Homo sapiens, 240 h; Pfeiffer cells, 10 days with compound, CellTiter-Glo; read-out: Cell Proliferation IC50
Output spec: scalar in nM, unitless text.

Solved entries:
# molecule, IC50, nM
data = [
    ("CN(C)[C@H]1CN(C2CCc3cccc(F)c32)C[C@@H]1c1cn(C)c2c(C(=O)N3C[C@H](O)[C@@H](O)C3)cccc12 (mixture of isomers) [Example 113]", 399),
    ("CN(C)C(=O)N1CCN(c2ccc([C@H]3CN(C4CCc5cccc(F)c54)C[C@@H]3N(C)C)cc2)CC1 (mixture of isomers) [Example 63]", 72.7),
    ("CNC(=O)Cn1cc(-c2ccc([C@@H]3CN(C4CCc5cccc(F)c54)C[C@H]3N(C)C)cn2)cn1 (mixture of isomers) [Example 161]", 293),
    ("CN(C)[C@H]1CN(C2CCc3cccc(F)c32)C[C@@H]1c1cn(C)c2c(C(=O)NC3CC(O)C3)cccc12 (mixture of isomers) [Example 108]", 152),
    ("CN(C)[C@H]1CN(C2CCc3cccc(F)c32)C[C@@H]1c1cn(C)c2cc(C(=O)N3CC[C@@H](O)C3)ccc12 (mixture of isomers) [Example 112]", 133),
]

From here, focus on the item given below.
(Q) Which IC50 value is on record for CN(C)[C@H]1CN(C2CCc3cccc(F)c32)C[C@@H]1c1cn(C)c2cc(C(=O)N3CC(O)C3)ccc12 (mixture of isomers) [Example 107] ?
(A) 284

====

target: EED (Homo sapiens); test: EED TR-FRET Binding Assay (modified LanthaScreen competition assay)
pIC50: −log10 of the molar value.
reported.endpoint: pIC50

# compound, reported.endpoint, recorded.value
data = [
    ("CN(C)[C@H]1CN([C@@H]2C[C@H](F)c3cccc(F)c32)C[C@@H]1c1ccc(S(C)(=O)=O)cc1 (mixture of isomers)", "pIC50", 8.09),
    ("CCS(=O)(=O)N1CCN(C(=O)c2ccc([C@H]3CN(C4CCc5cccc(F)c54)C[C@@H]3N(C)C)cc2)CC1 (mixture of isomers)", "pIC50", 7.91),
]

[1] Cc1cc([C@H]2CN(C3c4ccccc4CC3O)C[C@@H]2N(C)C)ccc1C#N (mixture of isomers)
[2] CN(C)[C@H]1CN(C2CCc3cccc(F)c32)C[C@@H]1c1cn(C)c2c(C(=O)N3CC(S(C)(=O)=O)C3)cccc12 (mixture of isomers)
(Q) Lowest pIC50? choose 1 or 2 Give the label of your selection.
(A) 1
(1: 7.16, 2: 8.98)

[1] Cc1cc([C@H]2CN(C3CCc4cccc(F)c43)C[C@@H]2N(C)C)ccc1C(=O)O (mixture of isomers)
[2] CN(C)[C@@H]1CN(C2CCc3cccc(F)c32)C[C@H]1c1ccc(C(N)=O)cc1 (mixture of isomers)
(Q) Please choose the item with the lower pIC50 value from this pair: 1 and 2 Provide the label of your selected option as the answer.
(A) 1

====

target: EED (Homo sapiens); assay: EED TR-FRET Binding Assay (modified LanthaScreen competition assay)
reported.endpoint: IC50 (nM)

[I] CN(C)[C@H]1CN(C2CCc3cccc(F)c32)C[C@@H]1C1CCN(c2ccc(C(N)=O)nn2)CC1 (mixture of isomers)
[II] CN(C)[C@H]1CN(C2CCc3cccc(F)c32)C[C@@H]1c1cn(C)c2c(C(=O)N3CCN(S(=O)(=O)N4CC(C#N)C4)CC3)cccc12 (stereo partly drawn)
[III] CN(C)[C@H]1CN([C@H]2C[C@@H](O)c3cccc(F)c32)C[C@@H]1c1ccc(S(C)(=O)=O)cc1 (mixture of isomers)
(Q) Task for the reader: rank each entry by its IC50, from the minimum upward. Write the labels out in the order the request specifies.
(A) I, II, III
